- assayed-target: T1, CD134 expressed on the cell surface of HT1080_OX40 cells (human, UniProt P43489 29-277)
- T1 construct: whole, on cells; species not restated for the HT1080 transfectant
- T1 sequence (looked up): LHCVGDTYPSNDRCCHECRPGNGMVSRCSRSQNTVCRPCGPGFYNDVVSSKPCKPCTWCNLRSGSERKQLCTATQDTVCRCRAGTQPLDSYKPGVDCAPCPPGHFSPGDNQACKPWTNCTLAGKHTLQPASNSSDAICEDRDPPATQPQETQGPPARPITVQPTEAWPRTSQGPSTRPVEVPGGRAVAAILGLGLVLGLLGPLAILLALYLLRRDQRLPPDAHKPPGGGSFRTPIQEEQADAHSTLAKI
- assay-method-text: HT1080_OX40 cells, imaging; note: test concentration or dose not given here
measured-property: Cellular binding assay [RFU] (RFU)
Report the figure in RFU without appending any unit label.

Give the measured Cellular binding assay [RFU] of P018.S.11.A.H06 (antibody, V domains shown, V regions on human Ig constant parts; also called AB134_49) VH: QSLEESGGRLVTPGTPLTLTCTVSGFSLSTYAMIWVRQAPGEGPEWIGLIAGGGNTWYASWAKGRFTISKTSTTVDLKITSPTTEDTATYFCARADYLGYGNNFWGQGTLVTVSS VL: AAVLTQTPSPVSAAVGGTVTINCQASQSVYNNNYLAWYQQKPGQPPKLLIYWASNLASGVPSRFSGSGSGTQFSLTISGVQSDDAATYYCLGVYDDDADNGFGGGTEVVVK .
498

Look up Cellular binding assay [RFU] for this binder: P018.S.11.A.E03 (antibody, V domains shown, V regions on human Ig constant parts; also called AB134_34) VH: QSVEESGGRLVTPGTPLTLTCTVSGFSLSSYAVSWVRQAPWKGLEWIGIISSGGNTYYASWATGRFTISKTSTTVDLKITSPTTEDTATYFCARGIHSYDDYLGYKLWGPGTLVTVSS VL: AIEMTQSPPSLSASVGETVRIRCLASEFLFNAVSWYQQKPEKPPTLLISGASNLESGVPPRFSGSGSGTDYTLTIGGVQAEDVAAYYCLGGYKRADLTFGPGTKVEIK
318

Could you share which Cellular binding assay [RFU] value was measured for P018.S.11.A.C03 (antibody, V domains shown, V regions on human Ig constant parts; also called AB134_28) VH: QSVEESGGRLVTPGTPLTLTCKVSGFSLSTYDMIWVRQAPAKGLEYIGIIGGSGFTYYANWAKGRFTISKTSTTVDLKITSPTTEDTATYFCARNNYDMWGPGTLVTVSS VL: DVVMTQTPASVSEPVGGTVTIKCQASQSISNELAWHQQKPGQRPNLLIYGASTLESGVPSRFKGSRSGTEYTLTISDLESDDAATYYCQCTYYGSSYVGGAFGGGTEVVVK ?
507
